- Tested on: Phenylbenzoquinone-induced Writhing
- assay name: Drug Effects on Phenylbenzoquinone-induced Writhing in Mice
- Format: in vivo, Male Swiss albino mice
- measurement parameters: mouse, p.o., dose 10 mg/kg, 60 min before PBQ i.p.
quantity: Phenylquinone Writhing in Mice, percent inhibition (%)

>  <molecule>
C=CCOc1cccc2c3c([nH]c12)C(CC)(CC(=O)O)OCC3 (centres unmarked) [Example 7]

>  <subject of test>
Phenylbenzoquinone-induced Writhing

>  <measured number>
18

$$$$
>  <molecule>
CCC1(CC(=O)O)OCCc2c1[nH]c1c(OCC(F)(F)F)ccc(C)c21 (centres unmarked) [Example 1]

>  <subject of test>
Phenylbenzoquinone-induced Writhing

>  <measured number>
34

$$$$
>  <molecule>
CCC1(CC(=O)O)OCCc2c1[nH]c1c(OCC(F)(F)F)ccc(F)c21 (centres unmarked) [Example 3]

>  <subject of test>
Phenylbenzoquinone-induced Writhing

>  <measured number>
18

$$$$
>  <molecule>
CCC1(CC(=O)O)OCCc2c1[nH]c1c(OC(C)C(F)(F)F)c(Cl)ccc21 (centres unmarked) [Example 5]

>  <subject of test>
Phenylbenzoquinone-induced Writhing

>  <measured number>
31

$$$$
>  <molecule>
CCC1(CC(=O)O)OCCc2c1[nH]c1c(OCC(F)(F)F)c(F)ccc21 (centres unmarked) [Example 4]

>  <subject of test>
Phenylbenzoquinone-induced Writhing

>  <measured number>
0

$$$$
